experiment: Displacement of [125I]-TZDM from amyloid beta 1 to 42 after 2 hrs by gamma counting
ASSAY ENDPOINT: Ki (nM)

Q: Quick one: Ki of `Brc1ccc(-c2ccc(/C=C/c3ccccc3)s2)s1` ?
A: 1.32

P = Ic1ccc(/C=C/c2ccc(-c3ccc(I)s3)s2)cc1
Q = Ic1ccc(/C=C/c2ccc(-c3cccs3)s2)cc1
R = COc1ccc(/C=C/c2ccc(-c3cccs3)s2)cc1
Q: Sort the compounds on Ki; start with the lowest figure. When ranking, write the labels in the order the request describes.
A: P, Q, R

a = Clc1ccc(/C=C/c2ccc(-c3ccc(I)s3)s2)cc1
b = Fc1ccc(/C=C/c2ccc(-c3ccc(I)s3)s2)cc1
Q: I would appreciate it if you could say which entry, a or b , has the lower Ki value. Please identify the chosen entry by its label.
A: b
(b: 0.55 nM, a: 1.1 nM)
